target: T1, human IL-17A (human, UniProt Q16552 24-155); assay: SPR, Biacore 8k; antibody amine-coupled to the chip, IL-17A as analyte
T1 construct: The immunogen was IL-17A protein, R&D Systems Cat #3012; also called Interleukin-17A; Hu IL-17
T1 sequence (Q16552 24-155 limits assumed): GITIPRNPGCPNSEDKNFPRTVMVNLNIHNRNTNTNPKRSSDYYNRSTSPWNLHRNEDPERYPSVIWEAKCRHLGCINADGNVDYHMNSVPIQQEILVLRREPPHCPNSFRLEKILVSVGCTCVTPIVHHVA
PARAMETER MEASURED: kon (M⁻¹ s⁻¹)

| BINDER | READOUT VALUE |
| --- | --- |
| REMD 155.1 (antibody, human IgG4 S228P, kappa, V domains shown, Humanized antibody derived from 23A4D8; also called IgG 2 (H1/L2); H1 + L2) VH: QVQLVQSGAEVKKPGASVKVSCKASGFTFTDYYMNWVRQAPGQGLEWMGDINPKNGGTIFNQNFRGRVTMTRDTSISTAYMELSRLRSDDTAVYYCARSILTGPFYFDYWGQGTLVTVSS VL: DIVMTQSPDSLAVSLGERATINCKASQSVSFAGTGLMHWYQQKPGQQPKLLIYRASNLEAGVPDRFSGSGSGTDFTLTISSLQAEDVAVYYCQQTMEYPTFGGGTKLEIKR | 2.77e+06 |
